A collection of molecules and their measured Pharmacophore torsion angle a(O1, H4, O2, CA1)
# testTarget: MASP-2 CCP2-SP (Homo sapiens (Human))
# protocolNotes: MASP-2 co-crystallization, X-ray crystallography and structure analysis (H-bonds, van der Waals contacts)
# measurementSetup: Table A7-1; between pharmacophore elements of the bound compound
measurementLabel: Pharmacophore torsion angle a(O1, H4, O2, CA1)

1) C[C@H](NC(=O)[C@H]1Cc2c([nH]c3ccccc23)CN1)C(=O)NCc1ccc(C(=N)N)cc1.Cl.Cl [1097_2]; −71.28
2) Cc1nc(N)ccc1CNC(=O)[C@H](C)NC(=O)[C@H]1C[C@H](Cc2ccccc2Br)CN1.O=C(O)C(F)(F)F.O=C(O)C(F)(F)F [1372_B]; −82.66
3) C[C@H](NC(=O)[C@H]1C[C@@H](c2ccccc2)CCN1)C(=O)NCc1cc(Cl)ccc1O.Cl [1078_9]; −50.72
4) Cc1nc(N)ccc1CNC(=O)[C@H](C)NC(=O)[C@H]1C[C@@H](c2ccccc2)CCN1C [compound 1441]; −80.01

---

Listing of entries alongside the reported d(CA1,O2).
# testTarget: UniProt:O00187
# protocolNotes: MASP-2 co-crystallization, X-ray crystallography and structure analysis (H-bonds, van der Waals contacts)
# Set-up: unit not given beside the values
# measurementSetup: Table A5-1 pharmacophore: distance between elements, S2/S1 region
Structures can show the parent of a compound that is named as a salt.
measurementLabel: d(CA1,O2)

1) Cc1nc(N)ccc1CNC(=O)C(C)NC(=O)C1CC(c2cccc3ccccc23)CCN1.Cl.Cl (stereo not shown) [1297_3]; 3.92
2) C[C@H](NC(=O)[C@H](N)CCCc1ccccc1)C(=O)NCc1ccc(C(=N)N)cc1.Cl.Cl [1042_2]; 4.74
3) Cc1nc(N)ccc1CNC(=O)[C@H](C)NC(=O)[C@H]1C[C@H](Cc2ccccc2Br)CN1.O=C(O)C(F)(F)F.O=C(O)C(F)(F)F [1372_B]; 4.00
4) CC(NC(=O)C1CC(Cc2ccccc2)CN1)C(=O)NCc1cnc2c(c1)c(Cl)cn2C.Cl.Cl (mixture of isomers) [1450_A]; 4.73
5) CC(NC(=O)C(CCc1ccccc1)NCCCc1ccc(O)cc1)C(=O)NCc1ccc(C(=N)N)cc1.Cl.Cl (stereo not shown); 4.42
6) C[C@H](NC(=O)[C@H]1C[C@@H](c2ccccc2)CCN1)C(=O)NCc1cc(Cl)ccc1O.Cl [1078_9]; 4.77
7) C[C@H](NC(=O)[C@H](N)C1Cc2ccccc2C1)C(=O)NCc1ccc2c(N)nccc2c1.Cl.Cl [1088_A]; 4.61
8) Cc1nc(N)ccc1CNC(=O)[C@H](C)NC(=O)[C@H]1C[C@H](Cc2cccc(Cl)c2)CN1.Cl.Cl [1328_2]; 4.01
9) C[C@H](NC(=O)[C@H](N)C1Cc2ccccc2C1)C(=O)NCc1ccc2nc(N)[nH]c2c1; 5.00
10) C[C@H](NC(=O)[C@H]1C[C@@H](c2ccccc2)CCN1)C(=O)NCc1cc(Cl)ccc1O.Cl [1078_15]; 4.59
11) C[C@H](NC(=O)[C@H]1C[C@H](Cc2ccccc2)CN1)C(=O)NCc1cc(Cl)ccc1-n1cnnn1 [compound 1371, Hydrochloride]; 3.72
12) CC(NC(=O)C(CCc1ccccc1)NCc1ccc(C(=O)N2CCOCC2)cc1)C(=O)NCc1ccc(C(=N)N)cc1.Cl.Cl (stereo not shown); 4.38
13) C[C@H](NC(=O)[C@H]1C[C@H](c2ccccc2)CN1)C(=O)NCc1ccc2c(N)nccc2c1; 5.11
14) C[C@H](NC(=O)[C@H]1C[C@@H](c2ccccc2)CCN1)C(=O)NCc1cc(Cl)ccc1O.Cl [1078_12]; 4.51
15) C[C@H](NC(=O)[C@H]1C[C@@H](c2ccccc2)CCN1)C(=O)NCc1cc(Cl)ccc1O.Cl [1078_8]; 4.59
16) Cc1nc(N)ccc1CNC(=O)[C@H](C)NC(=O)[C@H]1C[C@@H](Cc2ccccc2)CCN1; 3.79
17) Cc1nc(N)ccc1CNC(=O)[C@H](C)NC(=O)[C@H]1C[C@H](Cc2cccc(-c3ccccc3)c2)CN1; 4.00
18) Cc1nc(N)ccc1CNC(=O)[C@H](C)NC(=O)[C@H]1C[C@@H](c2ccccc2)CCN1 [compound 1253, Dihydrochloride]; 3.83
19) Cc1nc(N)ccc1CNC(=O)C(C)NC(=O)C1CC(c2cccc3ccccc23)CCN1.Cl.Cl (stereo not shown) [1297_1]; 3.86
20) Cc1nc(N)ccc1CNC(=O)[C@H](C)NC(=O)[C@H]1C[C@@H](c2ccccc2)CCN1CCC(=O)O [compound 1411, Trifluoroacetate salt]; 4.05
21) C[C@H](NC(=O)[C@H](N)C1Cc2ccccc2C1)C(=O)NCc1ccc2c(N)nccc2c1.Cl.Cl [1088_B]; 4.78
22) CC(=O)Nc1ccc(CCNC(CCc2ccccc2)C(=O)NC(C)C(=O)NCc2ccc(C(=N)N)cc2)cc1.Cl.Cl (stereo not shown) [1345_1]; 4.49

---

# testTarget: MASP-2 CCP2-SP (Homo sapiens (Human), UniProt O00187)
# Sequence (O00187 445-686): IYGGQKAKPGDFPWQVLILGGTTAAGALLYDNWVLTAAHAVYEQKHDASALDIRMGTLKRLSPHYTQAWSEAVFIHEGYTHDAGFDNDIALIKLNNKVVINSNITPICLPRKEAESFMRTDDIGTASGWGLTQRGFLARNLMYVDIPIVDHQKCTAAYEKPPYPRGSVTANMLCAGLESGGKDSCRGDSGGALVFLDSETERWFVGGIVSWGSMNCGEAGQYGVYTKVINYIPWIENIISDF
# Sequence (O00187 364-432 partner): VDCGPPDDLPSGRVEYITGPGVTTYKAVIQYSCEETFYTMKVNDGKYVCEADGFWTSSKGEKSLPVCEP
# protocolNotes: MASP-2 co-crystallization, X-ray crystallography and structure analysis (H-bonds, van der Waals contacts)
# measurementSetup: Table A7-1; between pharmacophore elements of the bound compound
Counter-ions that a name gives are not always drawn.
Measured Pharmacophore torsion angle a(H4, O1, O2, N2) values are reported for all entries that follow.
measurementLabel: Pharmacophore torsion angle a(H4, O1, O2, N2)

1) N=C(N)c1ccc(CNC(=O)[C@@H]2CCN2C(=O)[C@H](NCC(=O)O)C2Cc3ccccc3C2)cc1; 133.45
2) Cc1nc(N)ccc1CNC(=O)[C@H](C)NC(=O)[C@H]1C[C@@H](c2ccccc2)CCN1 [compound 1253, Dihydrochloride]; 140.24
3) C[C@H](NC(=O)[C@H]1C[C@H](Cc2ccccc2)CN1)C(=O)NCc1ccc(C(=N)N)cc1.Cl.Cl [1306_1]; 120.80
4) Cc1nc(N)ccc1CNC(=O)[C@H](C)NC(=O)[C@H]1C[C@H](Cc2ccccc2)CN1; 138.09
5) C[C@H](NC(=O)[C@H]1C[C@@H](c2ccccc2)CCN1)C(=O)NCc1cc(Cl)ccc1O.Cl [1078_3]; −166.69
6) Cc1nc(N)ccc1CNC(=O)C(C)NC(=O)[C@H]1C[C@H](c2cccc(-c3ccccc3)c2)CN1 (stereo in doubt); 138.89
7) Cc1nc(N)ccc1CNC(=O)[C@H](C)NC(=O)[C@H]1C[C@H](Cc2cc(-c3ccccc3)cs2)CN1 [compound 1399, Dihydrochloride]; 142.63
8) CC(NC(=O)C1CC(Cc2ccccc2)CN1)C(=O)NCc1cnc2c(c1)c(Cl)cn2C.Cl.Cl (centres unmarked); 177.59
9) CC(NC(=O)C(CCc1ccccc1)NCc1ccc(C(=O)N2CCOCC2)cc1)C(=O)NCc1ccc(C(=N)N)cc1.Cl.Cl (centres unmarked); 97.90
10) C[C@H](NC(=O)[C@H]1C[C@H](Cc2ccccc2)CN1)C(=O)NCc1cnc2[nH]cc(Cl)c2c1; −172.73
11) Cc1nc(N)ccc1CNC(=O)[C@H](C)NC(=O)[C@H]1C[C@@H](c2cccc3ccccc23)CCN1.Cl.Cl [1297_5]; 144.38
12) C[C@H](NC(=O)[C@H](N)C1Cc2ccccc2C1)C(=O)NCc1ccc2nc(N)[nH]c2c1; 121.97
13) C[C@H](NC(=O)[C@H]1C[C@H](Cc2ccccc2)CN1)C(=O)NCc1ccc(C(=N)N)cc1.Cl.Cl [1306_2]; 134.08
14) C[C@H](NC(=O)[C@H]1C[C@@H](c2ccccc2)CCN1)C(=O)NCc1cc(Cl)ccc1O.Cl [1078_15]; −117.88

---

# testTarget: MASP-2 CCP2-SP (Homo sapiens (Human), UniProt O00187)
# protocolNotes: MASP-2 co-crystallization, X-ray crystallography and structure analysis (H-bonds, van der Waals contacts);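 on Ligand-pharmacophore element distance, pharmacophore element CA1: distance from averaged pharmacophore element to bound ligand; missing value means element absent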
# measurementSetup: Table A4-1; element CA1
Structures can show the parent of a compound that is named as a salt.
Label rule, in plain words: Ligand-pharmacophore element distance, pharmacophore element CA1 of 0.6 and up is label 1, under 0.6 is label 0.

1. Cc1nc(N)ccc1CNC(=O)[C@H](C)NC(=O)[C@H]1C[C@H](Cc2cccc(Cl)c2)CN1.Cl.Cl [1328_2]; label 0
2. Cc1nc(N)ccc1CNC(=O)[C@H](C)NC(=O)[C@H]1C[C@@H](c2cccc3ccccc23)CCN1.Cl.Cl [1297_5]; label 0
3. N=C(N)c1ccc(CNC(=O)C(CF)NC(=O)[C@H](N)CCc2ccccc2)cc1 (some centres unmarked) [compound 1050, Dihydrochloride]; label 0
4. Cc1nc(N)ccc1CNC(=O)[C@H](C)NC(=O)[C@H]1C[C@H](Cc2ccccc2Br)CN1.O=C(O)C(F)(F)F.O=C(O)C(F)(F)F [1372_A]; label 0
5. CC(=O)Nc1ccc(CCN[C@H](CCc2ccccc2)C(=O)N[C@@H](C)C(=O)NCc2ccc(N)nc2C)cc1 [compound 1368, Dihydrochloride]; label 1
6. C[C@H](NC(=O)[C@H]1Cc2c([nH]c3ccccc23)CN1)C(=O)NCc1ccc(C(=N)N)cc1.Cl.Cl [1097_1]; label 0
7. C[C@H](NC(=O)[C@H]1C[C@@H](c2ccccc2)CCN1)C(=O)NCc1cc(Cl)ccc1O.Cl [1078_1]; label 1
8. Cc1nc(N)ccc1CNC(=O)[C@H](C)NC(=O)[C@H]1C[C@@H](c2ccccc2)CCN1C; label 1
9. CC(=O)Nc1ccc(CCNC(CCc2ccccc2)C(=O)NC(C)C(=O)NCc2ccc(C(=N)N)cc2)cc1.Cl.Cl (centres unmarked) [1345_2]; label 0
10. C[C@H](NC(=O)[C@H]1C[C@@H](c2ccccc2)CCN1)C(=O)NCc1cc(Cl)ccc1O.Cl [1078_9]; label 1
11. N=C(N)c1ccc(CNC(=O)[C@@H]2CCN2C(=O)[C@H](NCC(=O)O)C2Cc3ccccc3C2)cc1; label 0
12. C[C@H](NC(=O)[C@H]1C[C@@H](c2ccccc2)CCN1)C(=O)NCc1cc(Cl)ccc1O.Cl [1078_8]; label 1
13. C[C@H](NC(=O)[C@H]1C[C@H](c2ccccc2)CN1)C(=O)NCc1ccc2c(N)nccc2c1; label 1
14. C[C@H](NC(=O)[C@H]1Cc2c([nH]c3ccccc23)CN1)C(=O)NCc1ccc(C(=N)N)cc1.Cl.Cl [1097_2]; label 0
15. Cc1nc(N)ccc1CNC(=O)[C@H](C)NC(=O)[C@H]1C[C@@H](c2cccc3ccccc23)CCN1.Cl.Cl [1297_4]; label 0
16. C[C@H](NC(=O)[C@H]1C[C@@H](c2ccccc2)CCN1)C(=O)NCc1ccc(C(=N)N)cc1 (stereo in doubt); label 1
17. C[C@H](NC(=O)[C@@H](CCc1ccccc1)NCc1ccc(C(=O)N2CCOCC2)cc1)C(=O)NCc1ccc(C(=N)N)cc1.Cl.Cl; label 0
18. C[C@H](NC(=O)[C@H](N)C1Cc2ccccc2C1)C(=O)NCc1ccc2c(N)nccc2c1.Cl.Cl [1088_B]; label 1
19. Cc1nc(N)ccc1CNC(=O)[C@H](C)NC(=O)[C@H]1C[C@H](Cc2cccc(Cl)c2)CN1.Cl.Cl [1328_3]; label 0
20. Cc1nc(N)ccc1CNC(=O)[C@H](C)NC(=O)[C@H]1C[C@H](Cc2cccc(Cl)c2)CN1.Cl.Cl [1328_1]; label 0
21. Cc1nc(N)ccc1CNC(=O)[C@H](C)NC(=O)[C@H]1C[C@H](Cc2ccc(-c3ccccc3)cc2)CN1; label 0
22. Cc1cc(Cl)cc(CNC(=O)[C@H](C)NC(=O)[C@H]2C[C@H](Cc3ccccc3)CN2)c1O; label 1
23. C[C@H](NC(=O)[C@H]1C[C@@H](c2ccccc2)CCN1)C(=O)NCc1cc(Cl)ccc1O.Cl [1078_15]; label 1
24. C[C@H](NC(=O)[C@H]1C[C@@H](c2ccccc2)CCN1)C(=O)NCc1cc(Cl)ccc1O.Cl [1078_16]; label 1
25. C[C@H](NC(=O)[C@H]1C[C@@H](c2ccccc2)CCN1)C(=O)NCc1cc(Cl)ccc1O.Cl [1078_11]; label 1
26. C[C@H](NC(=O)[C@H](N)CCCc1ccccc1)C(=O)NCc1ccc(C(=N)N)cc1.Cl.Cl [1042_2]; label 0
